The reported measurements were obtained from patent US10722518B2.

assay: 13-week oral safety study in aged APP23 mice: plasma and brain concentrations of Compound 1 (toxicokinetics); format: in vivo; details: female, APP23, mouse, plasma, 0.3 g/kg food, end of the study
PARAMETER_MEASURED: concentration at 13 weeks (ng/mL)
Expressed in ng/mL, but write only the number.

Quick note, concentration at 13 weeks for C[C@@]1(c2nc(NC(=O)c3ncc(C(F)(F)F)cc3Cl)ccc2F)CO[C@@](C)(C(F)(F)F)C(N)=N1 [Compound 1] landed at 1210
